B1: HDV Ribozyme (parent)
chain: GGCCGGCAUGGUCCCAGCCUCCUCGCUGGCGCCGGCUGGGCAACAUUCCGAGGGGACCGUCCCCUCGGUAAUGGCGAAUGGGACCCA

- Variants of: B1
- Test protocol: self-cleavage, relative activity (ratio to wild type); higher = more cleavage; co-transcriptional
Classify as follows. Reported self-cleavage greater than or equal to 0.4: condition met. Reported self-cleavage below: condition not met.

* C63G G74A | condition not met
* C4G U60A | condition not met
* G25A C30G | condition not met
* G67A C86A | condition met
* C22A C66U | condition not met
* C13A U65A | condition not met
* C7U A78U | condition not met
* C22U G25C | condition not met
* A45U U46A | condition met
* A56G G67C | condition met
* A51C A83G | condition met
* G17A G68A | condition met
* G11U G55U | condition met
* G39U A70U | condition met
* U27G C85A | condition met
* U65C A71U | condition met
* C15G C32G | condition not met
* C13U U20C | condition not met
* U27C C85A | condition met
* C58U C75A | condition not met
* A42C G76C | condition not met
* G29U A77U | condition not met
* C26U G29C | condition not met
* A16C G35U | condition not met
* G6C A71U | condition not met
* C13G C86A | condition not met
* U23A C48G | condition met
* C57G G82C | condition not met
* G28C C75A | condition not met
* C18G G28A | condition not met
* C15A C66G | condition met
* U9G G39C | condition not met
* C3A G34U | condition not met
* C19A | condition not met
* C15U A78U | condition not met
* A51G G68U | condition met
* G55U C66A | condition met
* G34A U72C | condition not met
* C33A G52C | condition not met
* C18A G74C | condition not met
* C15A G39C | condition not met
* C44G A87C | condition met
* C41G G76A | condition met
* G31A G80A | condition not met
* G29C A45G | condition not met
* U37A G74A | condition not met
